The following molecules are listed with their measured remaining activity at 1 µM values.
# experimental system: Mm_CLK1 (Mus musculus, UniProt P22518)
# Sequence (P22518 whole entry): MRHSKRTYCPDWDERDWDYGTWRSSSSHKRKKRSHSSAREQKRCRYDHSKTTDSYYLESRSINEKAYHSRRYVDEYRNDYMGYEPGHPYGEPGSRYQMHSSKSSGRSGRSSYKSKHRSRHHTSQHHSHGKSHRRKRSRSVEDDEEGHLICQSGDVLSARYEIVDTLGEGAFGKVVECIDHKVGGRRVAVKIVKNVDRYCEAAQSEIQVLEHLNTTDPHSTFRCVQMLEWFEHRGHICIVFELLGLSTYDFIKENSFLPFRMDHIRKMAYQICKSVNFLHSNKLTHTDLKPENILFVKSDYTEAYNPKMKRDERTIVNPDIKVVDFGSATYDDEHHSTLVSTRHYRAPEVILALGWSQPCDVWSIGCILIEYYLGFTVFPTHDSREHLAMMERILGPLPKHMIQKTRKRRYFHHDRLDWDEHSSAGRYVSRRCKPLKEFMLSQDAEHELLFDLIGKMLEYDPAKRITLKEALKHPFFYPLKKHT
# method summary: primary screening, short panel of mammalian kinases
# Assay type: biochemical
# test context: compound 1 μM; ATP 10 µM; means, n = 2; read-out: Residual kinase activity Mm_CLK1
experimental endpoint: remaining activity at 1 µM (%)

molecule	recorded number
COC(=O)c1ccc(-c2cc(Cl)cc(Nc3ncc4cccc(OCc5cn(-c6ccc(C)cc6[N+](=O)[O-])nn5)c4n3)c2)cc1	60
Cc1ccc(-n2cc(COc3cccc4cnc(Nc5cccc(-c6cccc(C(=O)O)c6)c5)nc34)nn2)c([N+](=O)[O-])c1 [Compound 13a]	44
COC(=O)c1ccc(-c2cccc(Nc3ncc4cccc(OCc5cn(-c6ccc(C)cc6[N+](=O)[O-])nn5)c4n3)c2)cc1	66
Cc1ccc(-n2cc(COc3cccc4cnc(Nc5cc(Cl)cc(-c6ccc(C(=O)O)cc6)c5)nc34)nn2)c([N+](=O)[O-])c1 [Compound 10b]	38

----------
# experimental system: Mm_CLK2 (Mus musculus, UniProt O35491)
# Sequence (O35491 whole entry): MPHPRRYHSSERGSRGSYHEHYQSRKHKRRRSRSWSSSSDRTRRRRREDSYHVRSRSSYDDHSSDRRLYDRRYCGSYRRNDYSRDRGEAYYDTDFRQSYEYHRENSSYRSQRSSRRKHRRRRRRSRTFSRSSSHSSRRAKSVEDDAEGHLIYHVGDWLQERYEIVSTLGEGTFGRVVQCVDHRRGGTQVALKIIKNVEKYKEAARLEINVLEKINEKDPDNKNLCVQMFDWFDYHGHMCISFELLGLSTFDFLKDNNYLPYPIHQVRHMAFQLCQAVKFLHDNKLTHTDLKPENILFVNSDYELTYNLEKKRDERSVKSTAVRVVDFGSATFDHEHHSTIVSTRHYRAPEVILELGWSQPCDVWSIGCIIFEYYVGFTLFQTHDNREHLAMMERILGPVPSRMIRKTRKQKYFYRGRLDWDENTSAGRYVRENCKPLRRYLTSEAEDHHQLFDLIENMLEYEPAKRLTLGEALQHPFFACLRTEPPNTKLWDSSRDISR
# method summary: radiometric γ33P-ATP kinase assay (Eurofins)
# Assay type: biochemical
# test context: ratio of IC50 values

molecule	experimental system	Mm_CLK3/Mm_CLK2
Cc1ccc(-n2cc(COc3cccc4cnc(Nc5cc(Cl)cc(-c6cccc(C(=O)O)c6)c5)nc34)nn2)c([N+](=O)[O-])c1 [Compound 13b]	Mm_CLK2 (Mus musculus, UniProt O35491)	4.97
Cc1ccc(-n2cc(COc3cccc4cnc(Nc5cc(Cl)cc(-c6ccc(C(=O)O)cc6)c5)nc34)nn2)c([N+](=O)[O-])c1 [Compound 10b]	Mm_CLK2 (Mus musculus, UniProt O35491)	7.29
Cc1ccc(-n2cc(COc3cccc4cnc(Nc5cccc(-c6ccc(C(=O)O)cc6)c5)nc34)nn2)c([N+](=O)[O-])c1 [Compound 10a]	Mm_CLK2 (Mus musculus, UniProt O35491)	4.42
Cc1ccc(-n2cc(COc3cccc4cnc(Nc5cccc(-c6cccc(C(=O)O)c6)c5)nc34)nn2)c([N+](=O)[O-])c1 [Compound 13a]	Mm_CLK2 (Mus musculus, UniProt O35491)	5.95

----------
# experimental system: Hs_HASPIN (Homo sapiens)
# Sequence (Q8TF76 1-798): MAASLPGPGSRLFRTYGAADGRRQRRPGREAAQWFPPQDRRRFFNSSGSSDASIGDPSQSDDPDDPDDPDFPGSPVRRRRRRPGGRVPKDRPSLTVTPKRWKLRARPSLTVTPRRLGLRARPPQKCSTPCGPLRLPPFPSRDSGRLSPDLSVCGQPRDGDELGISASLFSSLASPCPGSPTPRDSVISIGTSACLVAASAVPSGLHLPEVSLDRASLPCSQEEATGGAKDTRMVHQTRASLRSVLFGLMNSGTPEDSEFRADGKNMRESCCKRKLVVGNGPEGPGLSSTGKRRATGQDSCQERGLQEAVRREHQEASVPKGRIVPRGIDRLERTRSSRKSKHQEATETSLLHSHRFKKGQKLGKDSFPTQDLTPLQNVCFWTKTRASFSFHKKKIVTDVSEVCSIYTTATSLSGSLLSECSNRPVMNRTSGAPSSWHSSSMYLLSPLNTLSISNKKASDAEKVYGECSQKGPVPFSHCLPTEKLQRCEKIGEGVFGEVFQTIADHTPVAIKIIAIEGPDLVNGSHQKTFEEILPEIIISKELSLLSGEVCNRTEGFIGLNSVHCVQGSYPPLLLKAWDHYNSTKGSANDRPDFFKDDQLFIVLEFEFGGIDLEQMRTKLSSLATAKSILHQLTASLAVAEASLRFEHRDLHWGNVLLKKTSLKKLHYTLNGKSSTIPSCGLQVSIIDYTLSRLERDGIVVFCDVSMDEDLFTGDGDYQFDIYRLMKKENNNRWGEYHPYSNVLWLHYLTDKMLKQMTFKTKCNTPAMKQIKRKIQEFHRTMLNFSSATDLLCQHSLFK
# method summary: primary screening, short panel of mammalian kinases
# Assay type: biochemical
# test context: compound 1 μM; ATP 10 µM; means, n = 2; read-out: Residual kinase activity Hs_HASPIN
# From the text: Our molecules have been submitted first to a primary screening against a panel of eight disease-related kinases: five members of the CMGC (for CDK, MAPK, GSK3, and CLK) group (CDK5/p25, CDK9/CyclinT, GSK3β, CLK1 and DYRK1A), one CAMK (calmodulin/calcium regulated kinase PIM1), one CK1 (the casein kinase CK1ε), and haspin as a […] kinase. Figure 4 Primary evaluation of the inhibition of the new quinazolines against a short panel of mammalian kinases. […]

compound	remaining activity at 1 µM
Cc1ccc(-n2cc(COc3cccc4cnc(Nc5cccc(-c6cccc(C(=O)O)c6)c5)nc34)nn2)c([N+](=O)[O-])c1 [Compound 13a]	79%
Cc1ccc(-n2cc(COc3cccc4cnc(Nc5cc(Cl)cc(-c6ccc(C(=O)O)cc6)c5)nc34)nn2)c([N+](=O)[O-])c1 [Compound 10b]	85%
COC(=O)c1ccc(-c2cccc(Nc3ncc4cccc(OCc5cn(-c6ccc(C)cc6[N+](=O)[O-])nn5)c4n3)c2)cc1	95%
COC(=O)c1ccc(-c2cc(Cl)cc(Nc3ncc4cccc(OCc5cn(-c6ccc(C)cc6[N+](=O)[O-])nn5)c4n3)c2)cc1	65%
